system: MS2 coat protein; test: apparent KD of MS2 coat protein; designed switch direction (-1 OFF switch, 1 ON switch): -1; higher = weaker reporter binding; details: Eterna round: R95; input ligand: microRNA oligo, concentration not stated
Reported apparent KD of MS2 coat protein values for a set of sequences

Examples with their reported apparent KD of MS2 coat protein follow.
- AAGAAACGAGGAUAUACAAUUAAGAGAGAGAAGGAAAUGAGACAUGAGGAUCACCCAUGUAGAAGGCGUAAGAG [JR_Exclu2_Sub083] (puzzle: Exclusion 2): 31.5 nM
- GAAGGUGAGCAGGAUAUCCGCGCACGAAUAUAAGGAGAAGGGCUUACAUGAGGAUCACCCAUGUAAGGUGGUAG [Rexequar] (puzzle: Exclusion 6): 11.9 nM

Next sequence, please.
Data request: Would you mind telling me what apparent KD of MS2 coat protein value was observed for UUUUUGUCAGGAUAUGACUAGAUGCACGUUAGUGCAUCUACUUAGAAGGGACAUGAGGAUCACCCAUGUAUUCC [Bring Us a Shrubbery-12] (puzzle: Exclusion 4) ?
Data returned: 27.3 nM

---

system: MS2 coat protein; assay: apparent KD of MS2 coat protein; higher = weaker reporter binding; conditions: Eterna round: R107; input ligand: theophylline 2 mM
// condition not met strictly below 100 nM in apparent KD of MS2 coat protein; condition met otherwise

Field: example entries. Status: answers known.
• CUAUGCAGGUCGGCCGCCACUACACACAUGAGGAUCACCCAUGUAGUUACUGGGUGAAGUGGCAGUAGGACCGGGACCUGCAUAU [Brourdmod07] = condition met
• GUACGAGUUGACUGUGAGACUGGCGUGGAAGGAGCGCACGGAGGUGCAGGUAGGUCGCCACAUGAGGAUCACCCAUGUCGGGCCG [Qutigeveat] = condition not met
• CACAUGAGGAUCACCCAUGUCUGAACUGAAGGAGCGCUAAACAAGGCAGGUAGGUCGCGGAAUUUUGUGUGCAUAUGCACAUGGG [9.O] = condition not met
• ACAUGUUGGUGGUACCAACGAAGGCGGAAACGAGGACCGGUACGGCCGCCACUCGGCGACAUGAGGAUCACCCAUGUGGUUAAAA [Exclusion - Tryptophan A (Freestyle 3)] = condition not met
• CUACAUUUGUAGAAACCGGUCACCAUUAUUCGAGGACCGGUACGGCCGCCACUCGUAUCAUGUGAUACAUGAGGAUCACCCAUGU [Tryptophan A 9] = condition not met

We next turn to a different sequence, shown below.
Data request: Would you say AUAACUGCCAAGGAUCAUGGGUGAGCAGAUACCAGCUAGGAAACUAGCCCUUGGCAGCUGCAACAUGAGGAUCACCCAUGUAAUA [(T)'-(M)'-(T1)-(T2)-(M1)-(M2)_Design8] shows apparent KD of MS2 coat protein at minimum 100 nM?
Data returned: condition met

---

test system: MS2 coat protein; experiment: apparent KD of MS2 coat protein; designed switch direction (-1 OFF switch, 1 ON switch): -1; higher = weaker reporter binding; conditions: Eterna round: R95; input ligand: FMN 200 uM
Reported apparent KD of MS2 coat protein values for a set of sequences
Answer shape: numeric part, then the unit.

• AAUAACUGAGGAUAUACUAAAAUAUGAAUAAAAUAAAUAAAACAUGAGGAUCACCCAUGUAGAAGGCAGAAUAA [JMF's Not so obvious solution 8] (puzzle: Exclusion 2) = 21.4 nM
• AAGAAACGAGGAUAUACAAUUAAGAGAGAGAAGGAAAUGAGACAUGAGGAUCACCCAUGUAGAAGGCGUAAGAG [JR_Exclu2_Sub083] (puzzle: Exclusion 2) = 28 nM
• UCUAAACAUGAGGAUCACCCAUGUGAGGAUAUGAUGCAGCAGUGGUCUACGCUGUGCAUCAGAAGGCGCAUGUG (puzzle: Exclusion 1) = 148 nM
• GGUCUGCGAGGAUAUACAUGAGGAUCACCCAUGUGCGAGAUACUAGUGAGGUCGGUUGGUAGAAGGCGCGGACG [JL-ex3-2.07 salish99 mod] (puzzle: Exclusion 3) = 58.8 nM

Next sequence, please.
Data request: Param readout= apparent KD of MS2 coat protein; system= MS2 coat protein; entry= AUGAGGUUAGGAUAUACAUGAGGAUCACCCAUGUUGAAAGGUUAGAUAGGCGAAGAUGGUAGAAGGAACAAAGA [JR_Exclu3_Sub054] (puzzle: Exclusion 3) ; returns value.
Data returned: 29.4 nM

---

system: MS2 coat protein; experiment: apparent KD of MS2 coat protein; higher = weaker reporter binding; details: Eterna round: R101; input ligand: none
Using apparent KD of MS2 coat protein as the sorting value, the categories are bottom (below 30 nM), middle (30 nM to below 50 nM), top (50 nM or more)

Data request: Category lookup for the sequence UUGAAUCGAAACAUGAGGAUCACCCAUGUGUUGUAAUUGACAUAGGAUAUGUAUAUACUUUUAUAAUAGAAGGAUGACGAUACU [S-state NG3 31] (puzzle (switch architecture): Same State NG 3)
Data returned: bottom

Data request: Category lookup for the sequence GCAGCUAAUGCAGGAUAUCAGCACGUGUAGUGCUGAGAAGGGCACAUGAGGAUACCGACUGUGAUCAAUUAAUAUUAAUGCUGC [salish99#hingeEx3_55-58_003] (puzzle (switch architecture): Exclusion NG 1)
Data returned: bottom

Data request: Category lookup for the sequence UGUAAUAUUAUAGGAUAUGGAUACGAUACGUAUCCAGAAGGGUGAUUAAACUAUAAUCUAUACAUGAGGAUCACCCAUGUUUAU [AtrosYaY10] (puzzle (switch architecture): Same State NG 1)
Data returned: top

Data request: Category lookup for the sequence CGCGAACAGUUUUAAAAGAGGAUCACCCAUGUGGACUCAUGGUAGGAUAUCGGGAAGGAGGAAACCGAGAAGGGCUGGUGAGCC [salish99_SSNG3_019 #HINGE] (puzzle (switch architecture): Same State NG 3)
Data returned: middle

Data request: Category lookup for the sequence GCAGCUAAUGCAGGAUAUCAGCACGUGUAGUGCUGAGAAGGGCACAUGAGGAUACUGACUGUGAUCAAUUAAUAUUAAUGCUGC [salish99#hingeEx3_55-58_004] (puzzle (switch architecture): Exclusion NG 1)
Data returned: top

Data request: Category lookup for the sequence AAGCACGAAGAUUAUUAUGAAUAAACAUGAGGAUCACCCAUGUAGGAUAUCGACUCGAAUAGAGUCGAGAAGGACAAAACGUGC [#BasePairInsertion1E] (puzzle (switch architecture): Exclusion NG 3)
Data returned: bottom

Data request: Category lookup for the sequence UUCACGGCGGGAAUAAGUGGUACUCAGGAUAUGGACUAGAAAUACAUGAGGAUCACCCAUGUGUUCCAGAAGGGAGGGCAUGCG [Tisorabea] (puzzle (switch architecture): Small Loop Same State NG 3)
Data returned: middle

Data request: Category lookup for the sequence CUUACUUUGUAGAAGGGUGACAUGAGGAUCACCCAUGUGCGUCGCCUGAAAGACCAGGGUACGCCACAGGAUAUACAAAGUAAG [Titerexe] (puzzle (switch architecture): Inverted Same State NG 2)
Data returned: bottom

Data request: Category lookup for the sequence CGCUAUGAUGGGUGUAAUAGAGCAUAGGAUAUGCUUGUACAUGAGGAUCACCCAUGUUAUAUUUUGCAGAAGGGUGCAUUUGCG [JR #DistanceFar #Hairpin #NP SLSSNG3 Sub072] (puzzle (switch architecture): Small Loop Same State NG 3)
Data returned: top

---

tested on: MS2 coat protein; experiment: apparent KD of MS2 coat protein; designed switch direction (-1 OFF switch, 1 ON switch): 1; higher = weaker reporter binding; settings: input ligand: microRNA oligo, concentration not stated
// false strictly below 20 nM in apparent KD of MS2 coat protein; true otherwise

Field: example entries. Status: answers known.
• AGAAGACAUGAGGAUCACCCAUGUACCUCAUAAGGAGAGAGCGAGGAUAUGUAGAGAGAGAGGGAGCAGAAGGUGUGGGAGGAA [Default title] (Eterna round: R96, puzzle: Same State NG 3) = true
• GCUCGCACGAUGACCGACAUGAGGAUCACCCAUGUGUGUCGGUAGGAUAUCUAUAUUAAGGAUUUAGAGAAGGGCCCAGCGAGC [SameState NG3 #20] (Eterna round: R96, puzzle: Same State NG 3) = true
• GAGUGGUAAAGAGGAUAUGCAUUGUUAUUCACUGUAGAAGGUUUUAACAUGAGGAUCACCCAUGUAGGACUAUUCCUGUGUUUU [Parity 61 - Jieux - Same State NG 1] (Eterna round: R96, puzzle: Same State NG 1) = false
• UUAAUAAUGUAAGGAUAUACAUGAGGAUUUCUCGUAGAAGGUACAUUACAUGAGGAUCACCCAUGUGGGUGUCAGAAGACGCCA [Mat - Same State NG 1 - JL mod - D13] (Eterna round: R96, puzzle: Same State NG 1) = true
• UAAAUAAUGUAAGGAUAUACAUGAGGAAUUCUCGUAGAAGGUACAUGACAUGAGGAUCACCCAUGUAUCGCUCCGUAGAGCGUA [Mat - Same State NG 1 - JL mod - D26] (Eterna round: R96, puzzle: Same State NG 1) = false
• AAAAUAAAAUAAAAGGAUAUAAAAUAAAAUACAUGAGGAUCACCCAUGUAUAAAAUAAAAAAAUAAAAGAAGGAAUAAAAAUAAA [SS2 504: MS2 4] (Eterna round: R96, puzzle: Same State 2) = true
• CUGAGAAGUCAAGGAUAUCACGUCGAUUAGACGUGAGAAGGUGAUCAUUACAUGAGGAUCACCCAUGUGUUACAUGGAACUCAG [Brourd's SSNG1/1-A2 mod 7] (Eterna round: R96, puzzle: Same State NG 1) = true
• GCUACCAAUAAAGCCAACAUGAGGAUCACCCAUGUAUGUUGGUAGGAUAUCGUUUGCAAAGCAAACGAGAAGGGCUAAGGUAGC [Mat - Same State NG 3 - JL Mod - D76] (Eterna round: R96, puzzle: Same State NG 3) = true

Data request: Would you say UUAAUGAUGUUAGGAUAUACAUGAGGAAUCCUCGUAGAAGGAACAUGACAUGAGGAUCACCCAUGUAGCGCUCCGUAGAGCGCA [JL SSNG1 1.18] (Eterna round: R96, puzzle: Same State NG 1) shows apparent KD of MS2 coat protein at minimum 20 nM?
Data returned: false

Data request: Would you say AUACAUAUCAGAGGAUAUCACGUCGAUUAGACGUGAGAAGGCUGAUCACACAUGAAUAUUAAUACAUGAGGAUCACCCAUGUAU [SSNG1/14-A2] (Eterna round: R96, puzzle: Same State NG 1) shows apparent KD of MS2 coat protein at minimum 20 nM?
Data returned: false
